Readings of 5+ nucleoli phenotype percent effect for the listed sequences
system: MCF10A; test: 5+ nucleoli phenotype percent effect (relative to siNT 0% and siKIF11 100%); higher = more cells with five or more nucleoli; details: 20 nM; 72 h
quantity.name: 5+ nucleoli phenotype percent effect (%)

>>> df
                            residue_sequence  experimental_target  unit_annotation  endpoint_result
 0  AGUGGUUCUUAACAGUUCAACAGUU [hsa-miR-203a-5p]               MCF10A                %             60.5
 1   CAACAAAUCACAGUCUGCCAUA [hsa-miR-7-1-3p]               MCF10A                %             23.6
 2    UCUGUGCCCCUACUUCCCAG [hsa-miR-6889-3p]               MCF10A                %             16.2
 3         GUGUCUGCUUCCUGUGGGA [hsa-miR-632]               MCF10A                %            -24.2
 4   CUCCUAUAUGAUGCCUUUCUUC [hsa-miR-337-3p]               MCF10A                %             2.51
 5  GAGCUUUUGGCCCGGGUUAUAC [hsa-miR-208a-5p]               MCF10A                %             45.1
 6  CCUAUUCUUGGUUACUUGCACG [hsa-miR-26a-1-3p]               MCF10A                %             -5.8
 7  ACCCCCGGGCAAAGACCUGCAGAU [hsa-miR-6840-5p]               MCF10A                %            -18.8
 8   CUUUCAGUCAGAUGUUUGCUGC [hsa-miR-30d-3p]               MCF10A                %             59.2
 9     UUUAGAGACGGGGUCUUGCUCU [hsa-miR-1303]               MCF10A                %             17.6
10   CUCCCACUUCCAGAUCUUUCU [hsa-miR-3156-3p]               MCF10A                %               12
11   GAAGCUCUCCCCUCCCCGCAG [hsa-miR-6796-3p]               MCF10A                %             5.79
12      AGCAUGACAGAGGAGAGGUGG [hsa-miR-6076]               MCF10A                %            -17.6
13   CCUGGGGACAGGGGAUUGGGGCAG [hsa-miR-8089]               MCF10A                %             40.1
14     CGCUCUAGGCACCGCAGCA [hsa-miR-1301-5p]               MCF10A                %             95.7
15   UGCGUUUCUCCUCUUGAGCAG [hsa-miR-6854-3p]               MCF10A                %            -12.2
16   ACUGAAUCCUCUUUUCCUCAG [hsa-miR-5187-3p]               MCF10A                %            0.116
17  GAAAGUGCUUCCUUUUAGAGGC [hsa-miR-526b-3p]               MCF10A                %             57.2
18  UGAGCGCCUCGACGACAGAGCCG [hsa-miR-339-3p]               MCF10A                %               27
19        CUGUGGGCUCAGCUCUGGG [hsa-miR-4265]               MCF10A                %            -38.1
20          CAGCCUGACAGGAACAG [hsa-miR-4293]               MCF10A                %             4.42
21  UAAAUUUCACCUUUCUGAGAAGA [hsa-miR-513c-3p]               MCF10A                %            -1.66
22       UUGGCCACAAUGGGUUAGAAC [hsa-miR-588]               MCF10A                %             11.2
23  AAAAGUAAUUGUGGUUUUGGCC [hsa-miR-548b-5p]               MCF10A                %             36.5

---

tested on: MCF10A; test: one-nucleolus phenotype percent effect (relative to siNT 0% and siNOL11 100%); higher = more cells with one nucleolus (ribosome biogenesis inhibition); conditions: 20 nM; 72 h
Readings of one-nucleolus phenotype percent effect for the listed sequences
quantity.name: one-nucleolus phenotype percent effect (%)

                            residue_sequence  unit_annotation  endpoint_result
 0     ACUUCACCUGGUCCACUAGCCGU [hsa-miR-412]                %            -11.5
 1   UUUCCCUUUCCAUCCUGGCAG [hsa-miR-5006-3p]                %             4.84
 2   AGUCAUUGGAGGGUUUGAGCAG [hsa-miR-616-3p]                %             10.7
 3   CGAAAACAGCAAUUACCUUUGC [hsa-miR-570-3p]                %            -22.6
 4  UGCCCCAACAAGGAAGGACAAG [hsa-miR-5699-5p]                %            -18.9
 5    CUGGAGAUAUGGAAGAGCUGUGU [hsa-miR-1270]                %             38.6
 6          AAGACUGAGAGGAGGGA [hsa-miR-4499]                %              -14
 7    GAACGGCUUCAUACAGGAGUU [hsa-miR-337-5p]                %             9.16
 8     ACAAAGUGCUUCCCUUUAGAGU [hsa-miR-520h]                %              -15
 9    GGGUUUGUAGCUUUGCUGGCAUG [hsa-miR-5087]                %             4.68
10  AGGCUCUAACUGGCUUUCCCUGCA [hsa-miR-6822-3p]                %             32.4
11    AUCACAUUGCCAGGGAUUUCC [hsa-miR-23a-3p]                %            -9.26
12   AGGCUGUGAUGCUCUCCUGAGCCC [hsa-miR-7974]                %             30.5
13       CGGUGGACUGGAGUGGGUGG [hsa-miR-8071]                %             22.4
14  CGGCAACAAGAAACUGCCUGAG [hsa-miR-196a-3p]                %             37.8
15      AAUGUAAACAGGCUUUUUGCU [hsa-miR-4495]                %             2.68
16      AGCUGUACCUGAAACCAAGCA [hsa-miR-4718]                %             9.98
17  CAACGGAAUCCCAAAAGCAGCUG [hsa-miR-191-5p]                %             11.8
18  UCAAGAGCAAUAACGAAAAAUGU [hsa-miR-335-5p]                %            -9.96
19  CCAAUAUUACUGUGCUGCUUUA [hsa-miR-16-2-3p]                %            -17.8
20      CAAUGUGAUCUUUUGGAUGUA [hsa-miR-8066]                %             56.9
21  UAAAACUUUAAGUGUGCCUAGG [hsa-miR-5582-3p]                %            -11.3
22  UUGUGUGAGUACAGAGAGCAUC [hsa-miR-6818-5p]                %             66.1
23  CCCAGUGUUCAGACUACCUGUUC [hsa-miR-199a-5p]                %             4.51

All figures here come from the supplement of paper PMC10899765.
